biological target: Regulator of G-protein signaling 19 (Homo sapiens) (UniProt P49795); assay: RGS19-Gαo interaction regulators, potency – biochemical, multiplexed bead flow cytometry, dose response (AID 1884); conditions: bead-based flow cytometry RGS19-Galphao binding
Sequence (P49795 whole entry, looked up): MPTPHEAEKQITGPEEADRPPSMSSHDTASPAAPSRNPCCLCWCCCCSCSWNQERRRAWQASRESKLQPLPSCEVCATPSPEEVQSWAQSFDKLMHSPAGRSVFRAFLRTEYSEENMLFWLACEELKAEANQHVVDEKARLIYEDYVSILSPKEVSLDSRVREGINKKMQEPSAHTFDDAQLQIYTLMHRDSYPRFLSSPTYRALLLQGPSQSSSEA
Active and inactive are the calls of the source. How the calls were made is not given here.
API: response.call in true = active, false = inactive

Recorded results for 8 molecules are shown here.
O=C1CCCC2=C1C(c1cccs1)n1ncnc1N2 (centres undefined) : false
NS(=O)(=O)c1ccc(N/N=C/c2ccc(O)c(O)c2O)c([N+](=O)[O-])c1 : true
COc1ccc(Br)cc1/C=N/Nc1cccc(C(=O)O)c1 : false
CN(C)[C@@H]1C(=O)C(C(=O)NCN2CCCC2)=C(O)[C@@]2(O)C(=O)C3=C(O)c4c(O)cccc4[C@@](C)(O)C3CC12 (some centres undefined) : true
O=c1[nH]c(=S)n(Cc2ccco2)c(O)c1C=NCc1cccs1 : false
CC(C)Sc1nc2ccc(N3C(=O)C4CCCCC4C3=O)cc2s1 (centres undefined) : false
CCOC(=O)N=Nc1c(O)n(C)c2ccccc12 : false
CCOC(=O)C1=C(C)NC(C)=C(C(=O)OCCNC(=O)c2cccnc2)C1c1cccc([N+](=O)[O-])c1 (centres undefined) : false

Then this molecule:
In: Entry CCOC(=O)/C(C(=O)Nc1ccccc1Cl)=C1/NC(C)(C)Cc2ccccc21 : call = ?
Out: false

----------
Below, each entry is listed with its recorded Ki.
biological target: Regulator of G-protein signaling 19 (Homo sapiens); assay: RGS19-Gαo interaction regulators, potency – biochemical, multiplexed bead flow cytometry, dose response (AID 1884); settings: bead-based flow cytometry RGS19-Galphao binding; measured here: Ki for RGS19-Galphao
Your answer is read as nM, so omit the unit and give the number.

Completed entries (count: 5):
CCN(CC)S(=O)(=O)c1cccc(C(=O)N/N=C/c2ccc(O)c(O)c2O)c1 : 2030
O=C(NCCCN1CCOCC1)c1sc2cc([N+](=O)[O-])ccc2c1Cl : 2050
O=C1CCC(=O)N(O)CCCCCNC(=O)CCC(=O)N(O)CCCCCNC(=O)CCC(=O)N(O)CCCCCN1 : 1930
COc1ccc(OC)c(CCNC(=O)Cn2sc3nc(C)cc(C)c3c2=O)c1 : 1140
Cc1[nH]n(-c2ccccc2)c(=S)c1C=NCCCN=Cc1c(C)[nH]n(-c2ccccc2)c1=S : 2630

In: Report Ki for O=[N+]([O-])c1ccc(Sc2cccc[n+]2[O-])c2nonc12
Out: 820

In: Report Ki for CCCCn1c(-c2csc(C(C)C)c2)n[nH]c1=S
Out: 10700

----------
molecular target: Regulator of G-protein signaling 19 (Homo sapiens) (UniProt P49795); experiment: RGS19-Gαo interaction regulators, potency – biochemical, multiplexed bead flow cytometry, dose response (AID 1884); conditions: bead-based flow cytometry RGS19-Galphao binding; measured here: Ki for RGS19-Galphao
measure: Ki (µM)
Your answer is read as µM, so omit the unit and give the number.

CC(=O)N1CC[n+]2c(-c3ccc([N+](=O)[O-])cc3)csc21 : 7.17
CCOc1ccccc1-c1c2cc(O)c(=O)cc-2oc2cc(O)c(O)cc12 : 0.93
CCOC(=O)c1sc(NC(=O)CSc2nnc(Cc3ccccc3)o2)c(C#N)c1C : 1.33

In: Report Ki for COC(=O)CCC(=O)Nc1sc(C)c(C)c1C(N)=O
Out: 4.09

In: Report Ki for CCN1/C(=C/C(C)=C/c2sc3ccccc3[n+]2CC)Sc2ccccc21
Out: 5.74

In: Report Ki for Cc1ccc(NC(=O)Cn2sc3nc(C)cc(C)c3c2=O)c(Cl)c1
Out: 0.47

In: Report Ki for CCN=c1scc(C)n1/N=C/c1ccc(O)c(O)c1O
Out: 4.33
